I'd appreciate it if you could supply TGI values for the items below.
- Tested on: CAKI-1 renal
- measurement-notes: NCI tumour cell line growth inhibition, 48 h
Numbers only, in µM.

molecule: CC1(C)COC(/C=C/C2=NC(C)(C)CO2)=N1
quantity: TGI
unit-abbrev: µM
numeric-value: 23.4

molecule: CCN(CC)CCS(=O)c1c2cc(OC)ccc2nc2ccc(OC)cc12 (stereo not given)
quantity: TGI
unit-abbrev: µM
numeric-value: 23.9

Would you kindly look at the next entry?
QUERY: # lookup: TGI of COc1cc(-c2coc3c(OC)c(OC4OC(CO)C(O)C(O)C4O)c(OC)cc3c2=O)cc(OC)c1C (stereo not given)
RESULT: 31
